Assay: chemical genetic growth profiling, strain panel (AID 1159580);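 also: tested at 20 µM; growth read once vehicle control cultures reached saturation at 30 °C; 1 = growth at the plate median or of vehicle wells; lower values mean less growth of the strain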
Details: S. cerevisiae deletion strains, growth OD, locus YLR357W, strain rsc2, active compounds read low
Hit rate of the full screen: of about 5,500 compounds, about 2,000 (36%) were called active. Roughly 18% stayed inconclusive and do not appear here. Some of the results follow.
VALUE_TYPE: normalized growth
# print the numeric value only

CC(=O)O[C@H]1CC[C@@]2(C)C(=CCC3C2CC[C@@]2(C)C3CC[C@@H]2C(C)CCCC(C)C)C1 (some centres not stated) :: 0.985

Query block: Given the compound CCOC(=O)C1=C[C@]2(CC)CCCN3CCc4c(n1c1ccccc41)[C@@H]32 , what is its reported normalized growth?
Result block: 1.07

Query block: Next record, please: C[C@]12CCC3c4ccc(OS(=O)(=O)O)cc4CCC3C1CCC2=O (some centres not stated)
Result block: 0.983

Query block: Same lookup for O=C(O)CCC(=O)c1ccc(-c2ccccc2)cc1 , please.
Result block: 0.903

Query block: What do you have for NCc1ccc(S(N)(=O)=O)cc1 ?
Result block: 1.01

Query block: Now consider CCOC(=O)c1ccc(N)cc1 .
Result block: 1.05

Query block: # repeat for C#C[C@]1(O)CCC2C3CCc4cc(O)ccc4C3CC[C@@]21C (some centres not stated)
Result block: 1.1

Query block: Another compound to check: O=C(O)CNCP(=O)(O)O
Result block: 1.03

Query block: Can you check CC(=O)O[C@H]1CC[C@@]2(C)C(=CCC3C2CC[C@]2(C)C(=O)CCC32)C1 (some centres not stated) next?
Result block: 1.1

---

Experiment: chemical genetic growth profiling, strain panel (AID 1159580)
Conditions: S. cerevisiae deletion strains, growth OD, locus YDR363W, strain ESC2, active compounds read low
Among all 5,500 compounds or so, about 2,000 (36%) were called active. Not shown: some 18% with an inconclusive outcome. Some of the results follow.
VALUE_TYPE: normalized growth
Enter the number alone.

O=C(O)CC[C@@H](NC(=O)c1ccccc1C(=O)O)C(=O)O :: 1.01
O=C(OCCN1CCOCC1)C1(c2ccccc2)CCCCC1 :: 1
CC(C)CC(NP(=O)(O)O[C@@H]1O[C@@H](C)[C@H](O)[C@@H](O)[C@H]1O)C(=O)NC(Cc1c[nH]c2ccccc12)C(=O)O (some centres undefined) :: 1.01

Query block: What value of measured normalized growth is listed for NC(=O)c1cnccn1 ?
Result block: 0.964

---

Below: a set of entries, each annotated with reported normalized growth.
Assay: chemical genetic growth profiling, strain panel (AID 1159580)
Details: S. cerevisiae deletion strains, growth OD, locus YPL051W, strain arl3, active compounds read low
Screen size: about 5,500 compounds; about 2,000 (36%) were called active. Roughly 18% stayed inconclusive and do not appear here. The list shows a part of the results.
Keep it simple and answer with nothing but the number.

Some solved entries appear below for comparison.
CC1=C(/C=C/C(C)=C/C=C/C(C)=C\C(=O)O)C(C)(C)CCC1 :: 0.983
CC1(C)CC2C1CCC1(C)OC1CCC2(C)O (stereo not drawn) :: 1.05
Nc1nc2c(c(=O)[nH]1)N(C=O)C(CNc1ccc(C(=O)N[C@@H](CCC(=O)O)C(=O)O)cc1)CN2 (stereo partly drawn) :: 0.985
CN(Cc1cnc2nc(N)nc(N)c2n1)c1ccc(C(=O)NC(CCC(=O)O)C(=O)O)cc1 (stereo not drawn) :: 0.984

Query block: For Nc1nc(N)c2nc(CNc3ccc(C(=O)NC(CCC(=O)O)C(=O)O)cc3)cnc2n1 (stereo not drawn) , what is its reported normalized growth?
Result block: 1

Query block: Another compound to check: CC[C@@]1(C2O[C@@H](C3O[C@@](O)(CC)[C@H](C)C[C@@H]3C)C[C@@H]2C)CC[C@H]([C@]2(C)CCC3(C[C@H](O)[C@@H](C)[C@@H]([C@H](C)[C@@H](OC)[C@H](C)C(=O)O)O3)O2)O1 (stereo partly drawn)
Result block: 1.01

Query block: Can you check Cc1cccc(CN2CCN(C(c3ccccc3)c3ccc(Cl)cc3)CC2)c1 (stereo not drawn) next?
Result block: 0.496

Query block: What would you report for COc1ccccc1OCC(O)CN1CCN(CC(=O)Nc2c(C)cccc2C)CC1 (stereo not drawn) ?
Result block: 1.04

Query block: Now try CC1(C)CC2C1CCC1(C)OC2(C)CCC1O (stereo not drawn) .
Result block: 1

Query block: Now try CCC(COC(=O)c1cc(OC)c(OC)c(OC)c1)(c1ccccc1)N(C)C (stereo not drawn) .
Result block: 0.954

Query block: Then this compound: Nc1nc2ncc(CNc3ccc(C(=O)N[C@@H](CCC(=O)O)C(=O)O)cc3)nc2c(=O)[nH]1
Result block: 0.997

Query block: How about this compound: O=C1OCCN1/N=C\c1ccc([N+](=O)[O-])o1
Result block: 0.943

---

Experiment: chemical genetic growth profiling, strain panel (AID 1159580)
Details: S. cerevisiae deletion strains, growth OD, locus YPR025C, strain CCL1, active compounds read low
The campaign covered roughly 5,500 compounds. About 2,000 (36%) were called active. Not shown: some 18% with an inconclusive outcome. The list shows a part of the results.
VALUE_TYPE: normalized growth
Answer with a number only.

Query block: Please look up its normalized growth: COc1cc(C(=O)Oc2c(Cl)cc(Cl)cc2C=Nc2cccc(C(F)(F)F)c2)cc(OC)c1OC
Result block: 0.966

Query block: Next up: Clc1ccc(-c2noc(CSC3=NCCN3)n2)cc1
Result block: 0.986

Query block: Field entry: O=C(Nc1cccc(C(F)(F)F)c1)Oc1ccc(F)cc1Cl
Result block: 0.979

Query block: Try this molecule next: CC(=O)C(Sc1nc2ccccc2s1)C(C)=O
Result block: 0.916

Query block: Then what about the molecule Cc1cc(C(=O)O/N=C(/N)c2ccc([N+](=O)[O-])o2)no1 ?
Result block: 0.97

Query block: Note, next up: N=C(N)SCc1nc(-c2ccc(Cl)cc2)no1
Result block: 0.987

Query block: // query: COc1cc(N=Cc2cc(Cl)cc(Cl)c2OC(=O)c2cc(OC)c(OC)c(OC)c2)c(OC)cc1Cl
Result block: 0.974

Query block: What about OC(c1ccc(C(F)(F)F)cc1)c1cccc(C(F)(F)F)c1 (centres undefined) ?
Result block: 0.968

---

molecules and their reported normalized growth
Assay: chemical genetic growth profiling, strain panel (AID 1159580);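 also: tested at 20 µM; growth read once vehicle control cultures reached saturation at 30 °C; 1 = growth at the plate median or of vehicle wells; lower values mean less growth of the strain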
Conditions: S. cerevisiae deletion strains, growth OD, strain wtn01, active compounds read low
Hit rate of the full screen: of about 5,500 compounds, about 2,000 (36%) were called active. About 18% were inconclusive and are not listed. This is one part of the list.
Respond numerically, and do not add a unit to the figure.

Query block: Return reported normalized growth; argument: CN(Cc1cnc2nc(N)nc(N)c2n1)c1ccc(C(=O)NC(CCC(=O)O)C(=O)O)cc1 (centres undefined)
Result block: 0.97

---

Each record here notes measured normalized growth.
Assay: chemical genetic growth profiling, strain panel (AID 1159580);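 also: tested at 20 µM; growth read once vehicle control cultures reached saturation at 30 °C; 1 = growth at the plate median or of vehicle wells; lower values mean less growth of the strain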
Settings: S. cerevisiae deletion strains, growth OD, locus YPL256C, strain CLN2, active compounds read low
The whole screen tested about 5,500 compounds, of which about 2,000 (36%) were called active. Roughly 18% stayed inconclusive and do not appear here. This is one part of the list.
Output spec: single numeric token, no unit.

# example entries with known answers
O=C(O)c1cc(=O)c2c(OCC(O)COc3cccc4oc(C(=O)O)cc(=O)c34)cccc2o1 :: 1
CCN(CC)CCOC(=O)C(Cc1cccc2ccccc12)CC1CCCO1 (stereo not given) :: 0.964
CCc1cc2c(cc1-c1csc(C/C(N)=N\O)n1)C(C)(C)CCC2(C)C :: 0.546
CC12CC[C@@H](O)CC1=CC[C@@H]1C2CCC2(C)C(=O)CC[C@@H]12 (stereo not given in full) :: 1.07

Here's the next entry for you.
Query block: Record request: normalized growth value, item CSc1cccc(N2C(=O)CC(c3c(Cl)cccc3Cl)CC2=O)c1
Result block: 0.924

---

Experiment: chemical genetic growth profiling, strain panel (AID 1159580);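 also: tested at 20 µM; growth read once vehicle control cultures reached saturation at 30 °C; 1 = growth at the plate median or of vehicle wells; lower values mean less growth of the strain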
Details: S. cerevisiae deletion strains, growth OD, locus YER015W, strain faa2
In all, about 5,500 compounds went through this assay and about 2,000 (36%) were called active. Roughly 18% stayed inconclusive and do not appear here. Rule as the data show it: active = normalized growth mostly below about 0.91 (no sharp cut-off); inconclusive = no clear call, values can overlap the other calls; inactive = mostly above about 0.92. This is one part of the list.
One label from this list, please: active, inactive

CN1CCc2cccc3c2C1Cc1ccc(O)c(O)c1-3 (configuration not stated) :: active
COc1ccc(CN(CCN(C)C)c2ncccn2)cc1 :: inactive
COc1ccc(C=CC(=O)c2ccc(O)cc2O)cc1OC :: inactive
COc1cc2c(cc1O)CC1c3c(cc(O)c(OC)c3-2)CCN1C (configuration not stated) :: inactive
COc1cc(/C=C/C(=O)O)ccc1O :: inactive
CN(Cc1cc(Br)cc(Br)c1N)C1CCCCC1 :: inactive

Query block: What did the test return for COc1cc(/C=C/C(=O)O)cc(OC)c1OC ?
Result block: inactive
